Origin of values: ChEMBL document CHEMBL3997837

# Tested on: Sporosarcina pasteurii
# assay.notes: Reversible inhibition of Sporosarcina pasteurii CCM 2056 urease assessed as reduction in ammonia production by measuring recovery of enzyme activity at 10 times IC50 preincubated for 60 mins followed by 100-fold dilution in to PBS containing urea as substrate by Berthelot colorimetric assay relative to control
# Set-up: scale not given: the % may be the effect or the level left
Counter-ions that a name gives are not always drawn.
value.type: Activity (%)
Give a bare numeral; the unit % is implied.

O=C(O)/C=C/c1ccc([N+](=O)[O-])cc1 = 35.8
Cc1ccc(C(=O)/C=C/C(=O)O)cc1 = 32.7
O=C(O)/C=C(\CC(=O)O)C(=O)O [ACONITIC ACID] = 33.8
CCOC(=O)/C=C/C(=O)O [ETHYL FUMARATE] = 45.6

Shift focus to the following entry.
Req: I am curious: what Activity value has been reported for O=C(O)C#CC(=O)O ?
Resp: 10.9

====

# assay.notes: Inhibition of Sporosarcina pasteurii CCM 2056 urease assessed as reduction in ammonia production by measuring initial state enzyme-inhibitor complex using urea as substrate measured for 120 mins by phenol-hypochlorite method
# study.conditions: read-out: Ki
value.type: Ki (µM)
Kindly answer with a numeric value in µM, unit omitted.

Req: Return reported Ki; argument: CCOC(=O)C#Cc1ccccc1
Resp: 814

Req: Which Ki value is on record for O=C(O)C#Cc1ccccc1 ?
Resp: 584

====

# assay.notes: Inhibition of Sporosarcina pasteurii CCM 2056 urease assessed as reduction in ammonia production by measuring initial state enzyme-inhibitor complex using urea as substrate measured for 120 mins by phenol-hypochlorite method
# study.conditions: read-out: Ki
value.type: pKi
pKi (log units): -log10 of the concentration in mol/L.

# count of solved cases: 2
CCOC(=O)C#CC(=O)OCC = 6.07
CCOC(=O)/C=C/C(=O)OCC = 4.66

Req: For CC#CC(=O)O , what is its reported pKi?
Resp: 2.95

Req: Tell me the measured pKi of O=C(O)C#CC(=O)O , please.
Resp: 5.40

Req: Look up pKi: O=C1C=C(/C=C/C(=O)c2ccccc2)CCC1
Resp: 4.57

Req: Quick one: pKi for N#C/C=C/C1=CC(=O)CCC1 ?
Resp: 4.26

====

# Tested on: Sporosarcina pasteurii
# assay.notes: Reversible inhibition of Sporosarcina pasteurii CCM 2056 urease assessed as reduction in ammonia production by measuring recovery of enzyme activity at 10 times IC50 preincubated for 60 mins followed by 100-fold dilution in to PBS containing urea as substrate by Berthelot colorimetric assay relative to control
# Parameters: scale not given: the % may be the effect or the level left
value.type: Activity

Examples with answers:
CCOC(=O)C#CC(=O)OCC = 8.8%
C#CC(=O)OC = 41.5%

Attention now shifts to the item below.
Req: Recorded Activity for COC(=O)/C=C/C1=CC(=O)CCC1 with Sporosarcina pasteurii, please?
Resp: 23.6%

====

# assay.notes: Inhibition of Sporosarcina pasteurii CCM 2056 urease assessed as reduction in ammonia production using urea as substrate measured for 120 mins by phenol-hypochlorite method
# study.conditions: read-out: Ki
Structures can show the parent of a compound that is named as a salt.
// pKi lookup, one value per entry
To interpret pKi, take it as minus log10 of a concentration measured in moles per litre.

Req: Entry O=C(O)C#CC(=O)O has what pKi?
Resp: 7.37

Req: pKi for CC(C)OC(=O)/C=C/C(=O)OC(C)C ?
Resp: 4.37

Req: For the compound shown here, Cc1ccc(C(=O)/C=C/C(=O)O)cc1 , give the reported pKi.
Resp: 5.20

Req: // pKi lookup, key: N#C/C=C/C1=CC(=O)CCC1
Resp: 6.11

Req: Given the entry O=C(O)C#Cc1ccccc1 , report its measured pKi.
Resp: 4.43

Req: Request the reported pKi associated with CCOC(=O)C#Cc1ccccc1
Resp: 4.28

Req: Which pKi value is on record for CCOC(=O)/C=C/C(=O)O [ETHYL FUMARATE] ?
Resp: 4.28

Req: Param item = CCOC(=O)/C=C/C(=O)OCC ; retrieve measured pKi.
Resp: 4.95

Req: Given the compound C#CC(=O)O , what is its reported pKi?
Resp: 4.35

Req: I am curious: what pKi value has been reported for CCOC(=O)/C=C/C(=O)C(=O)OCC ?
Resp: 7.03

Req: Any idea what pKi was measured for O=C(O)/C=C/C1=CC(=O)CCC1 ?
Resp: 4.75

Req: Request the reported pKi associated with CC#CC(=O)OCC
Resp: 3.90

Req: Which measured pKi value corresponds to C#CC(=O)OC ?
Resp: 4.34
